Attribution: patent US20100172907A1

targetOrTestSystem: T1, BSA-conjugated Aβ heptapeptide AEFRHDC (C-terminal Cys coupled to NSMP-activated BSA);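 note: ELISA binding of human antibody (10 or 2 µg/ml) to plate-coated BSA–peptide conjugates, detected with HRP anti-human Ig and TMB colour, mock-treated BSA as negative control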
T1 construct: also called Peptide 2-7
T1 peptide: AEFRHDC
assayInfo: ELISA
Measured OD ratio 2-7/BSA of individual entries
Please reply with the value in numeric form only.

{"binder": "MS-R IgG 7.11H2 (antibody, V domains shown, full-length human IgG; also called 7.11H2 IgG) VH: QVELVESGGGLVQPGGSLRLSCAASGFTFSSYAMSWVRQAPGKGLEWVSAINANGYKKYYADSVKGRFTISRDNSKNTLYLQMNSLRAEDTAVYYCARGKGNTHKPYGYVRYFDVWGQGTLVTVSS VL: DIVLTQSPATLSLSPGERATLSCRASQSVSSSYLAWYQQKPGQAPRLLIYGASSRATGVPARFSGSGSGTDFTLTISSLEPEDFATYYCQQVYSPPHTFGQGTKVEIKR", "resultValue": 10}

// returns reported OD ratio 2-7/BSA for input MS-R IgG1 7.9.H3 (antibody, V domains shown, full-length human IgG1; also called 7.9H3 IgG) VH: QVELVESGGGLVQPGGSLRLSCAASGFTFSSYAMSWVRQAPGKGLEWVSAINYQGNRKYYADSVKGRFTISRDNSKNTLYLQMNSLRAEDTAVYYCARGKGNTHKPYGYVRYFDVWGQGTLVTVSS VL: DIVLTQSPATLSLSPGERATLSCRASQSVSSSYLAWYQQKPGQAPRLLIYGASSRATGVPARFSGSGSGTDFTLTISSLEPEDFATYYCLQIYNMPITFGQGTKVEIK 13
